assay: folding enthalpy; higher = less favourable; fluorescence melt of hairpins on a sequencing array, two-state fit; details: sodium 0.088 M
Label met when folding enthalpy is at or above -90 kJ/mol; otherwise label not met.

Answered examples (4):
GGCTCATCGAAAGATGCC (((..(((....)))))) ... met
GGTGTTCGAAAGAAGACC (((.(((....))).))) ... not met
GCTAACGGAAACGCTAGC ((((.((....)).)))) ... not met
GATATGCGAAAGCAATC (((.(((....)))))) ... met

As a next step, examine the sequence that follows.
Ask: Form field: folding enthalpy at least -90 kJ/mol? Entry: GGATGGGGAAACCCATCC (((((((....)))))))
Result: not met

====

Reported Tm values are given for each entry in this list.
experiment: melting temperature; fluorescence melt of hairpins on a sequencing array, two-state fit, raised by 9.35 °C to match UV melts; settings: sodium 0.088 M
Your answer is read as °C, so omit the unit and give the number.

# annotated cases, reported Tm shown
CGAACGGAAACGTATTCG ((((((....)))..))) ... 29.1
GACCAGCGAAAGCTCGTC (((.(((....))).))) ... 42.4
CACGTGAAAACGTG (((((....))))) ... 58.6
CTAGTGAAAACTAG (((((....))))) ... 42.4
CGGGCGGAAACGCCACCG ((((((....)))..))) ... 42.4

Moving on to the next sequence.
Ask: Query Tm for GTCAACGAAAGTTGGAC ((((((....))).)))
Result: 39.7

====

test: melting temperature; fluorescence melt of hairpins on a sequencing array, two-state fit, raised by 9.35 °C to match UV melts; conditions: sodium 0.088 M
The label depends only on Tm: MET if it is at least 50 °C, NOT MET if it is smaller.

GCGATTGATCGC ((((....)))) ... MET
GGAAGCGAAAGCTATTCC ((((((....)))..))) ... NOT MET

Ask: Is the recorded value of Tm equal to or greater than 50 °C for this sequence? GTAGGCGAAAGCCATAC ((((((....))).)))
Result: NOT MET

Ask: hey, is Tm for this one >= 50 °C? GGATGCGGAAACACATCC (((((.(....).)))))
Result: NOT MET

Ask: Is Tm for GTTAGAGGAAACTTTAAC ((((.((....)).)))) at or above 50 °C?
Result: NOT MET

Ask: Check this sequence for Tm at or above 50 °C: GTCACACGAAAGTGGGAC (((.(((....))).)))
Result: MET

Ask: Item GGACGAGGAAACTCGTCC (((((((....))))))) with Tm of 50 °C or above?
Result: MET

Ask: Can GAGGGGCGAAAGCCGCTC (((.(((....))).))) be said to have Tm at or above 50 °C?
Result: MET

Ask: Can GAATGGCCGAAAGGCTTC (((..(((....)))))) be said to have Tm at or above 50 °C?
Result: NOT MET

Ask: Check this sequence for Tm at or above 50 °C: GCTAGTCGAAAGACCAGC (((.(((....))).)))
Result: NOT MET

Ask: Threshold query (Tm >= 50 °C) on GTTATGGGAAACCACAAC (((.(((....))).)))
Result: NOT MET

Ask: Determine whether this sequence has Tm no lower than 50 °C: CAACGGAAACGTTG (((((....)))))
Result: MET

Ask: For this sequence, is measured Tm 50 °C or higher? GCATGAGGAAACTTATGC ((((.((....)).))))
Result: NOT MET

Ask: Reported Tm reaches at least 50 °C for GAGGACCGAAAGGTTCTC (((.(((....))).))) ?
Result: MET

Ask: Confirm if Tm reported for the sequence GACGCCGGAAACAGCGTC (((((.(....).))))) is 50 °C or above.
Result: MET

Ask: Tell me whether Tm is at least 50 °C here: GCTTCGGGAAACTGAAGC (((((.(....).)))))
Result: MET

====

assay: folding enthalpy; higher = less favourable; fluorescence melt of hairpins on a sequencing array, two-state fit; conditions: sodium 0.088 M
Entries annotated with measured folding enthalpy
Please reply with the bare figure in kcal/mol and do not write the unit itself.

Example results:
GTCGGCGAAAGCCAAGAC ((((((....)))..))) ... -15.2
GGTTTCGGAAACGGAACC ((((.((....)).)))) ... -45
GTGTCCGAAAGGATGCAC ((((((....)))..))) ... -15.8

Ask: Read off the recorded folding enthalpy for GTCGATGGAAACATTGAC (((.(((....))).)))
Result: -36.2

Ask: // Input: GAGAAGGGAAACTTTCTC (((((.(....).))))) . Output its folding enthalpy only.
Result: -22.7

Ask: Indicate its recorded folding enthalpy; the sequence in question is GCTATACGAAAGTAAGC (((.(((....))))))
Result: -22.3

Ask: Supply recorded folding enthalpy for GAAGGGCCGAAAGGCTTC (((..(((....)))))) here.
Result: -7.08

Ask: Fill in folding enthalpy for record GTGTTGCGAAAGCACAC (((.(((....))))))
Result: -33.8

Ask: Could you please provide reported folding enthalpy for GCAGCGTCGAAAGACTGC (((..(((....)))))) ? Thanks!
Result: -14

====

assay: melting temperature; fluorescence melt of hairpins on a sequencing array, two-state fit, raised by 9.35 °C to match UV melts; settings: sodium 0.088 M
parameter_measured: Tm (°C)
# number only, unit °C dropped from output

GTCGTGCGAAAGCAGGAC (((.(((....))).))) ... 64.5

Ask: Determine its reported Tm: GGAGAGGGAAACCTCTCC (((((((....)))))))
Result: 63.3

Ask: Read off the recorded Tm for GGCCACGAAAGTGAGCC ((((((....))).)))
Result: 65.8

Ask: Identify the reported Tm for the following entry. GTGAAGGGAAACCTCCAC (((.(((....))).)))
Result: 38.5

Ask: Specify measured Tm for GTCACAGGAAACTGCGAC (((.(((....))).))) .
Result: 46.1

Ask: Quickly give me recorded Tm for GGTTCTACGAAAGTAACC (((..(((....))))))
Result: 28.2

Ask: In one line, give reported Tm of the entry GATCTAATAATAGATC ((((((....)))))) .
Result: 35.5

Ask: Specify reported Tm for the sequence shown: GTGTGAGGAAACTTACGC (.((.((....)).)).)
Result: 33.7

Ask: Please report the measured Tm for GTTCTCGAAAGAGAGAAC ((((((....)))..)))
Result: 46.4

Ask: State its Tm for this sequence: GACTGAGGAAACTTAGTC ((((.((....)).))))
Result: 39.4

Ask: Report measured Tm; entry is GCTCAGCGAAAGCCGCGC ((.(.((....)).).))
Result: 42

Ask: Give me measured Tm, please, for this sequence: GGGCACTCGAAAGAGCCC (((..(((....))))))
Result: 50.9

====

As shown below, each of these sequences has a reported folding enthalpy value.
experiment: folding enthalpy; higher = less favourable; fluorescence melt of hairpins on a sequencing array, two-state fit; conditions: sodium 0.088 M
Hi! Could you send only the number? It should be in kcal/mol, unit omitted.

Known folding enthalpy results, listed for orientation:
GTTGCGCGAAAGCGTAAC (((.(((....))).))) ... -29.8
GCTCCGCGAAAGCGCTGC ((..(((....)))..)) ... -12.3
GCTATGGGAAACTGTAGC ((((..(....)..)))) ... -25.2
GTCGAAGGAAACTTTGGC (.(.(((....))).).) ... -22.4

Ask: Fill in reported folding enthalpy for this entry: GGCTACGGAAACATAGCC (((((.(....).)))))
Result: -28.8

Ask: Give the value of folding enthalpy reported for the following: GTAGAGGAAACTCTAC ((((((....))))))
Result: -25.3

====

assay: folding enthalpy; higher = less favourable; fluorescence melt of hairpins on a sequencing array, two-state fit; settings: sodium 0.088 M
// label = yes (1) if folding enthalpy is not less than -30 kcal/mol, otherwise no (0)

GGCAACGGAAACATTGCC (((((.(....).))))) ... no (0)
GTGGGCGAAAGCCGGCAC ((((((....)))..))) ... yes (1)
GATCATCCTAATGATC ((((((....)))))) ... no (0)
GATCTTGCACAAGATC ((((((....)))))) ... no (0)
GCCCCGCGAAAGCTGAGC ((.(.((....)).).)) ... yes (1)

Ask: Check the entry GGCGTAGGAAACTGTGCC (((..((....))..))) : does folding enthalpy equal or exceed -30 kcal/mol?
Result: yes (1)

Numbers sourced from the array DNA melting data of Ke et al. (doi:10.1101/2024.01.08.574731).
